biological target: T1, Human EphA2 (Ecto), C-terminal polyHis (Human, UniProt P29317 24-537); experiment: FP competition vs Reference Compound C
T1 construct: extracellular domain; R&D systems 3035-A2 or in-house
T1 sequence (P29317 24-537): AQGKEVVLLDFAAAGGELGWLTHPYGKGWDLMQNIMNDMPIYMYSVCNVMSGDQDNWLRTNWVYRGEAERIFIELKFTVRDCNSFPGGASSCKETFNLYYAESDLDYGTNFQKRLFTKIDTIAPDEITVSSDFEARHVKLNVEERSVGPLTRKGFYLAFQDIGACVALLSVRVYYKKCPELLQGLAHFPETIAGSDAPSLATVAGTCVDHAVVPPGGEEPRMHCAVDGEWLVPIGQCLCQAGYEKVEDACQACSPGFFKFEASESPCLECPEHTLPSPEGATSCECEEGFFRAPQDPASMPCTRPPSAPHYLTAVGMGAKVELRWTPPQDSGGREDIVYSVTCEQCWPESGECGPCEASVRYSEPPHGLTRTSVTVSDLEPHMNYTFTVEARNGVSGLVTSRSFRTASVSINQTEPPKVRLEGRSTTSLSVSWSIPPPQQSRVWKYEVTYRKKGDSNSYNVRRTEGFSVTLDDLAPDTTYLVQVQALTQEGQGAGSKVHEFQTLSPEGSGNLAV
*1 amine or outer side, *2 acyl side, *3 side chain or, on linkers, in order; H or OH if unused. Bridges are numbered along the chain shown (N, C = ends). Where no end group is shown, it is not given here. TATA = O=C(CC[*:1])N1CN(C(=O)CC[*:2])CN(C(=O)CC[*:3])C1
TEST READOUT: Ki (nM)
Answers are plain numbers, in nM.

| BINDER | OBSERVED VALUE |
| --- | --- |
| ACGFMGLVPCEVHCA (linker 2-10-14 via TATA; not fully specified (C-terminus)) [Compound 41] | 155 |

Consider the following items and state reported Ki for each.
1. ACGFMGLEPCELFCMPK (linker 2-10-14 via TATA; not fully specified (C-terminus)) [Compound 47]
2. TPRCPLVNPLCLMPGWTCA (linker 4-11-18 via TATA; not fully specified (C-terminus)) [Compound 81]

OUT:
1. 185
2. 9.8

// provenance: patent US20240000957A1
